system: SF-268 CNS; experiment: NCI tumour cell line growth inhibition, 48 h
Measured attribute: TGI

O=C(O)c1ccccc1N=Cc1ccc(N(CCCl)CCCl)cc1 ... > 100 µM

TGI for Nc1nc(Cl)cc(NC23CC4CC(CC(C4)C2)C3)n1 ?
> 100 µM

Another: COc1ccc2[nH]c(O)c(/C=c3/cc4c(c(-c5ccc(F)c(OC)c5)n3)=Nc3ccccc3-4)c2c1
18 µM

Next: C=C(C)[C@H]1C2=CC(C)=C(O2)[C@@H](O[C@@H]2c3oc(cc3C)[C@H](C(=C)C)[C@H]3C=C(CC[C@H]2C(=C)C)C(=O)O3)[C@H](C(=C)C)CCC2=C[C@H]1OC2=O
> 100 µM

Next entry: O=C(O)CCNCCCCNCCC(=O)O
> 100 µM
